# maps each entry to its normalised response
Tested on: BT-474
Assay: normalised response (% of control), CellTox Green; higher = less cell death (100 = DMSO, 0 = benzethonium chloride kill control)
Conditions: incubation time: 72 h
Measured Parameter: normalised response (%)

Compound: CN1CCN(c2ccc3nc(-c4c(N)c5c(F)cccc5[nH]c4=O)[nH]c3c2)CC1 [Dovitinib] (10000 nM)
Quantitative Readout: 99.9

Compound: COC1=C2C[C@@H](C)C[C@H](OC)[C@H](O)[C@@H](C)/C=C(\C)[C@H](OC(N)=O)[C@@H](OC)/C=C\C=C(/C)C(=O)NC(=CC1=O)C2=O [Geldanamycin] (10000 nM)
Quantitative Readout: 35.9

Compound: COc1ccc(C2=N[C@@H](c3ccc(Cl)cc3)[C@@H](c3ccc(Cl)cc3)N2C(=O)N2CCNC(=O)C2)c(OC(C)C)c1 [Nutlin-3] (1000 nM)
Quantitative Readout: 100

Compound: CC(C)C[C@H](NC(=O)[C@H](Cc1ccccc1)NC(=O)c1cnccn1)B(O)O [Bortezomib] (100 nM)
Quantitative Readout: 67.6

Compound: COc1ccc(C2=N[C@@H](c3ccc(Cl)cc3)[C@@H](c3ccc(Cl)cc3)N2C(=O)N2CCNC(=O)C2)c(OC(C)C)c1 [Nutlin-3] (100 nM)
Quantitative Readout: 71.6

Compound: CC(=O)O[C@H]1C(=O)[C@@]2(C)[C@H]([C@H](OC(=O)c3ccccc3)[C@]3(O)C[C@H](OC(=O)[C@H](O)[C@@H](NC(=O)c4ccccc4)c4ccccc4)C(C)=C1C3(C)C)[C@]1(OC(C)=O)CO[C@@H]1C[C@@H]2O [Paclitaxel] (100 nM)
Quantitative Readout: 49.4

Compound: CS(=O)(=O)OCCCCOS(C)(=O)=O [Busulfan] (100000 nM)
Quantitative Readout: 100

====

# maps each entry to its normalised response
Tested on: BT-549
Experiment: normalised response (% of control), CellTox Green; higher = less cell death (100 = DMSO, 0 = benzethonium chloride kill control)
Conditions: incubation time: 72 h

Compound: COc1ccc(C2=N[C@@H](c3ccc(Cl)cc3)[C@@H](c3ccc(Cl)cc3)N2C(=O)N2CCNC(=O)C2)c(OC(C)C)c1 [Nutlin-3] (1000 nM)
Target Or Test System: BT-549
normalised response (%): 116

Compound: COC(=O)C[C@](O)(CCCC(C)(C)O)C(=O)O[C@@H]1C(OC)=C[C@]23CCCN2CCc2cc4c(cc2[C@H]13)OCO4 [Omacetaxine] (100 nM)
Target Or Test System: BT-549
normalised response (%): 103

Compound: COc1cccc2c1C(=O)c1c(O)c3c(c(O)c1C2=O)C[C@@](O)(C(C)=O)C[C@@H]3O[C@H]1C[C@H](N)[C@H](O)[C@H](C)O1 [Daunorubicin] (100 nM)
Target Or Test System: BT-549
normalised response (%): 124

====

Test system: Hs578T
Experiment: normalised viability (% of control), CellTiter-Blue; higher = more viable cells (100 = DMSO, 0 = benzethonium chloride kill control)
Details: incubation time: 72 h

Compound: CC(=O)O[C@H]1C(=O)[C@@]2(C)[C@H]([C@H](OC(=O)c3ccccc3)[C@]3(O)C[C@H](OC(=O)[C@H](O)[C@@H](NC(=O)c4ccccc4)c4ccccc4)C(C)=C1C3(C)C)[C@]1(OC(C)=O)CO[C@@H]1C[C@@H]2O [Paclitaxel] (0.1 nM)
normalised viability: 103%
//
Compound: COc1c(C)cnc(Cn2cnc3c(Cl)nc(N)nc32)c1C [BIIB021] (1 nM)
normalised viability: 105%
//
Compound: COC1=C2C[C@@H](C)C[C@H](OC)[C@H](O)[C@@H](C)/C=C(\C)[C@H](OC(N)=O)[C@@H](OC)/C=C\C=C(/C)C(=O)NC(=CC1=O)C2=O [Geldanamycin] (1 nM)
normalised viability: 130%
//
Compound: C[C@@]1(C(=O)Nc2ccc(F)nc2)CCCN1c1nc(Nc2cc(C3CC3)n[nH]2)c2cccn2n1 (1 nM)
normalised viability: 104%
//
Compound: COc1cc(Nc2ncc(F)c(Nc3ccc4c(n3)NC(=O)C(C)(C)O4)n2)cc(OC)c1OC [R406] (1 nM)
normalised viability: 116%
//
Compound: O=C(c1ccc(OCCN2CCCCC2)cc1)c1c(-c2ccc(O)cc2)sc2cc(O)ccc12 [Raloxifene] (1 nM)
normalised viability: 99.8%

// data source = the supplement of paper PMC4862054
